# tgt: T1, human ROR1-hFc fusion protein (extracellular domain) (human)
# T1 construct: Whole entry 'human ROR1-Fc (CHO)'; also called hROR1; huROR1-Fc
# method description: SPR, human ROR1 ECD-Fc on chip;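 further: SPR binding kinetics of VNAR and VNAR-Fc molecules run at a range of concentrations over immobilised target, rate and affinity constants fitted with QDat software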
metric: kon (M⁻¹ s⁻¹)

1) B1 G1 (humanised/grafted B1) with His6myc tag (VNAR, VNAR) VNAR: TRVDQSPSSLSASVGDRVTITCVLTGANYGLASTYWYRKNPGSSNKEQISISGRYSESVNKGTKSFTLTISSLQPEDSATYYCRAYPWGAGAPWLVQWYDGAGTKVEIKQ    220000
2) P3A1 V1 dimer (VNAR) TRVDQSPSSLSASVGDRVTITCVLTDTSYGLYSTSWFRKNPGTTDWERMSIGGRYVESVNKGAKSFTLTISSLQPEDFATYYCKAREARHPWLRQWYDGAGTKVEIKGGGGSGGGGSGGGGSGGGGSGGGGSTRVDQSPSSLSASVGDRVTITCVLTDTSYGLYSTSWFRKNPGTTDWERMSIGGRYVESVNKGAKSFTLTISSLQPEDFATYYCKAREARHPWLRQWYDGAGTKVEIKQASGAHHHHHHGAEFEQKLISEEDL    4.78e+06
3) P3A1-[G4S]5-P3A1 his myc (VNAR, VNAR homodimer by genetic fusion; also called P3A1-P3A1; P3A1 dimer) TRVDQTPRTATKETGESLTINCVLTDTSYGLYSTSWFRKNPGTTDWERMSIGGRYVESVNKGAKSFSLRIKDLTVADSATYYCKAREARHPWLRQWYDGAGTVLTVNGGGGSGGGGSGGGGSGGGGSGGGGSTRVDQTPRTATKETGESLTINCVLTDTSYGLYSTSWFRKNPGTTDWERMSIGGRYVESVNKGAKSFSLRIKDLTVADSATYYCKAREARHPWLRQWYDGAGTVLTVNQASGAHHHHHHGAEFEQKLISEEDL    3.78e+06
4) D3 humanised EL V4 with His6myc tag (VNAR, VNAR; also called D3 EL V4) VNAR: ASVNQSPSSLSASVGDRVTITCVLTDTSYGLYSTSWYQQKPGTTDWERMSIGGRYVESVNKRAKSFTLTISSLQPEDFATYYCKAQSGMAISTGSGHGYNWYDGAGTKVEIKQ    1.38e+06
5) D3 ADV1 dimer (VNAR, Listing names it 'D3V1 dimer'; also called D3V1 dimer) ASVNQSPSSLSASVGDRVTITCVLTDTSYGLYSTSWFRKNPGTTDWERMSIGGRYSESVNKGAKSFTLTISSLQPEDSATYYCKAQSGMAISTGSGHGYNWYDGAGTKVEIKGGGGSGGGGSGGGGSGGGGSGGGGSASVNQSPSSLSASVGDRVTITCVLTDTSYGLYSTSWFRKNPGTTDWERMSIGGRYSESVNKGAKSFTLTISSLQPEDSATYYCKAQSGMAISTGSGHGYNWYDGAGTKVEIKQASGAHHHHHHGAEFEQKLISEEDL    636000
6) B1 humanised V7 with His6myc tag (VNAR, VNAR; also called B1V7) VNAR: ASVDQSPSSASASVGDRLTITCVVTGANYGLAATYWYRKNPGSSNQERISISGRYSESVNKRTMSFTLTISSLQPEDSATYYCKAYPWGAGAPWLVQWYDGAGTKLEVKQ    77400

The origin of these recorded values is patent US20230203155A1.
